The following molecules are shown together with reported Potency values.
assay.explanation: qHTS Screen of the MIPE 4.0 Collection Against Ewings Sarcoma (EW8) (AID 1259255); further: potency means the concentration at half of the fitted maximal effect; nearly all actives have a fitted effect of over 35% in size
applied.conditions: EW8 Ewing sarcoma viability, CellTiter-Glo, 48 h; series mostly up to 45.8 µM
Method: There is a large unmet medical need for treatments for Ewing sarcoma, a pediatric sarcoma. […] Using the NCATS developed oncology compound library called the Mechanism of Interrogation Plate (MIPE), four Ewing sarcoma cell lines were evaluated (TC32, TC71, RDES, EW8). Compounds, in a 12-point titration series, were incubated with cells for 48 hours and the read out was cell viability (CellTiter-Glo from Promega). […]
Results filed as inconclusive are left out. Calls of active or inactive are those of the source. The call rests on the fitted dose curve; in most records, active means well fitted inhibition curve with a large enough effect; inconclusive means small, poorly fitted or top-dose-only effect; inactive means no such curve, though single readings can be large or run the other way.

Worked set:
CC=C1NC(=O)[C@H]2CSSCCC=C[C@H](CC(=O)N[C@H](C(C)C)C(=O)N2)OC(=O)[C@H](C(C)C)NC1=O ... 0.0187 µM (active)
CC[C@H](CO)Nc1nc(NCc2ccccc2)c2ncn(C(C)C)c2n1 ... 29.6 µM (active)

[ask] Tell me measured Potency for "CCCCOc1c(C(=O)c2c(F)cc(C)cc2F)cnc2n[nH]cc12" please.
[reply] 18.7 µM (active)

###

System: HaCat
assay.explanation: Cytotoxic Profiling of Annotated Libraries Using Quantitative High-Throughput Screening (AID 1296008); further: nearly all actives have a fitted effect of over 60% in size; further: potency means the concentration at half of the fitted maximal effect
applied.conditions: Five cell lines viability, CellTiter-Glo ATP luminescence, 48-72 h
Inconclusive results are not listed. The source made the active and inactive calls. The call rests on the fitted dose curve; in most records, active means well fitted inhibition curve with a large enough effect; inconclusive means small, poorly fitted or top-dose-only effect; inactive means flat fitted curve, though single readings scatter.
quantity.kind: Potency

O=c1c2ccccc2nc2n1CCc1c-2[nH]c2ccccc12 ... inactive
CC(C)C[C@H](NC(=O)CNC(=O)c1cc(Cl)ccc1Cl)B(O)O ... 3.72 µM (active)
CCn1cc(-c2ccnc3[nH]c(-c4cccc(CN(C)C)c4)cc23)c(-c2ccc(NC(=O)N(C)C)cc2)n1 ... 0.0893 µM (active)
O=C(O)Cn1nnc(-c2cc(N3CCC(Oc4cc(F)ccc4Br)CC3)no2)n1 ... inactive
COc1cccc2nc(-c3cccs3)nc(NN3C(=O)C=C(C)C3=O)c12 ... 23.5 µM (active)

[ask] Give Potency for "Clc1ccc2ncc(-c3cccc(NC4CNC4)n3)n2c1" tested on HaCat.
[reply] inactive

[ask] Give Potency for "C=C1C(=CC=C2CCC[C@]3(C)[C@@H]([C@H](C)C=C[C@H](C)C(C)C)CC[C@@H]23)C[C@@H](O)C[C@@H]1O" tested on HaCat.
[reply] inactive

###

assay.explanation: qHTS Screen of the MIPE 4.0 Collection Against Ewings Sarcoma (EW8) (AID 1259255); further: potency means the concentration at half of the fitted maximal effect; nearly all actives have a fitted effect of over 35% in size
applied.conditions: EW8 Ewing sarcoma viability, CellTiter-Glo, 48 h; series mostly up to 45.8 µM
Records with an inconclusive call do not appear. Calls of active or inactive are those of the source. Calls follow the shape of the dose curve; as a rule, active = well fitted inhibition curve with a large enough effect; inconclusive = small, poorly fitted or top-dose-only effect; inactive = no such curve, though single readings can be large or run the other way.
The following compounds are shown together with reported Potency values.

Worked set:
CCn1cc(-c2ccnc3[nH]c(-c4cccc(CN(C)C)c4)cc23)c(-c2ccc(NC(=O)N(C)C)cc2)n1 ... 46.9 nM (active)
CS(=O)(=O)N1CCN(Cc2cc3nc(-c4cccc5[nH]ncc45)nc(N4CCOCC4)c3s2)CC1 ... 1660 nM (active)

[ask] Tell me measured Potency for "COc1cc2c(Oc3ccc4[nH]c(C)cc4c3F)ncnc2cc1OCCCN1CCCC1" please.
[reply] 23500 nM (active)

###

system.name: Tyrosine-protein kinase Yes (Homo sapiens) (UniProt P07947)
Sequence (P07947 whole entry, looked up): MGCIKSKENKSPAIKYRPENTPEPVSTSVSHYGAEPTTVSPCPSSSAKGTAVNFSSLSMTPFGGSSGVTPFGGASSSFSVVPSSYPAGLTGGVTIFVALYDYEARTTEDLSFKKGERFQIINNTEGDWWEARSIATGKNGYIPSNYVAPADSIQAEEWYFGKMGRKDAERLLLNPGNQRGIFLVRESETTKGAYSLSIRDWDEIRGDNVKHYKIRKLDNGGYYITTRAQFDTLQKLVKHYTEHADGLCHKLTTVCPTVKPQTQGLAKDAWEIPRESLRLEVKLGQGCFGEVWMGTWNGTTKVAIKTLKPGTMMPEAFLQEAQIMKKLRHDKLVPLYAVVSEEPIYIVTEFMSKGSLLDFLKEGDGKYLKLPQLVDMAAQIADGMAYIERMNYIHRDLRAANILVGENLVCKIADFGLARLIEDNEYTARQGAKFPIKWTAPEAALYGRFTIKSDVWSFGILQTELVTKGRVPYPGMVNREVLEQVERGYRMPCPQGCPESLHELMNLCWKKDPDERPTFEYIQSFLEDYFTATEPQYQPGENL
assay.explanation: qHTS for small molecule inhibitors of Yes1 kinase: Primary Screen (AID 686947); further: nearly all actives have a fitted effect of over 60% in size
applied.conditions: Yes1 kinase biochemical qHTS inhibition; series mostly up to 76.9 µM
Inconclusive results are not listed. Calls of active or inactive are those of the source. Calls follow the shape of the dose curve; as a rule, active = well fitted inhibition curve with a large enough effect; inconclusive = small, poorly fitted or top-dose-only effect; inactive = no such curve, though single readings can be large or run the other way.
Lab note: assign the record to one of active, inactive

COc1cc2nccc(Oc3ccc(NC(=O)C4(C(=O)Nc5ccc(F)cc5)CC4)cc3)c2cc1OC ... active
O=C(O)c1ccc2cc(-c3ccc(O)c(C45CC6CC(CC(C6)C4)C5)c3)ccc2c1 ... inactive

Field: next compound
[ask] Give the logged outcome of this assay for the following compound: "CC(C)(C)OC(=O)Nc1ccc(-c2cc(C(=O)NCCCCCCC(=O)NO)no2)cc1"
[reply] inactive
